- Tested on: Salmonella choleraesuis
- experimental_details: Bacterial panel testing, MIC by broth microdilution
- Assay type: cell-based
- test_conditions: 20-24 hours growth
outcome_measure: MIC SC

Known MIC SC results, listed for orientation:
1. Cl.Cl.Cl.Cl.Cl.Cl.NCCCCCCSCC1OC2OC3C(CSCCCCCCN)OC(OC4C(CSCCCCCCN)OC(OC5C(CSCCCCCCN)OC(OC6C(CSCCCCCCN)OC(OC7C(CSCCCCCCN)OC(OC1C(O)C2O)C(O)C7O)C(O)C6O)C(O)C5O)C(O)C4O)C(O)C3O (stereo not drawn)	>200 µg/mL
2. Cl.Cl.Cl.Cl.Cl.Cl.NCC1OC2OC3C(CN)OC(OC4C(CN)OC(OC5C(CN)OC(OC6C(CN)OC(OC7C(CN)OC(OC1C(O)C2O)C(O)C7O)C(O)C6O)C(O)C5O)C(O)C4O)C(O)C3O (stereo not drawn)	>200 µg/mL
3. Cl.Cl.Cl.Cl.Cl.Cl.Cl.NC(CCC(=O)OCc1ccccc1)C(=O)NCC1OC2OC3C(CNC(=O)C(N)CCC(=O)OCc4ccccc4)OC(OC4C(CNC(=O)C(N)CCC(=O)OCc5ccccc5)OC(OC5C(CNC(=O)C(N)CCC(=O)OCc6ccccc6)OC(OC6C(CNC(=O)C(N)CCC(=O)OCc7ccccc7)OC(OC7C(CNC(=O)C(N)CCC(=O)OCc8ccccc8)OC(OC8C(CNC(=O)C(N)CCC(=O)OCc9ccccc9)OC(OC1C(O)C2O)C(O)C8O)C(O)C7O)C(O)C6O)C(O)C5O)C(O)C4O)C(O)C3O (stereo not drawn)	>200 µg/mL
4. Cl.Cl.Cl.Cl.Cl.Cl.Cl.Cl.Cl.Cl.Cl.Cl.Cl.Cl.NCCCC(N)C(=O)NCC1OC2OC3C(CNC(=O)C(N)CCCN)OC(OC4C(CNC(=O)C(N)CCCN)OC(OC5C(CNC(=O)C(N)CCCN)OC(OC6C(CNC(=O)C(N)CCCN)OC(OC7C(CNC(=O)C(N)CCCN)OC(OC8C(CNC(=O)C(N)CCCN)OC(OC1C(O)C2O)C(O)C8O)C(O)C7O)C(O)C6O)C(O)C5O)C(O)C4O)C(O)C3O (stereo not drawn)	>200 µg/mL
5. O[C@@H]1[C@@H](O)[C@H]2O[C@H]3[C@H](O)[C@@H](O)[C@@H](O[C@H]4[C@H](O)[C@@H](O)[C@@H](O[C@H]5[C@H](O)[C@@H](O)[C@@H](O[C@H]6[C@H](O)[C@@H](O)[C@@H](O[C@H]7[C@H](O)[C@@H](O)[C@@H](O[C@H]8[C@H](O)[C@@H](O)[C@@H](O[C@@H]1[C@@H](CN1CCOCC1)O2)O[C@@H]8CN1CCOCC1)O[C@@H]7CN1CCOCC1)O[C@@H]6CN1CCOCC1)O[C@@H]5CN1CCOCC1)O[C@@H]4CN1CCOCC1)O[C@@H]3CN1CCOCC1	>200 µg/mL

Now examine the next entry.
QUERY: So what's the measured MIC SC for this one? Cl.Cl.Cl.Cl.Cl.Cl.Cl.NCCCCCCCSCC1OC2OC3C(CSCCCCCCCN)OC(OC4C(CSCCCCCCCN)OC(OC5C(CSCCCCCCCN)OC(OC6C(CSCCCCCCCN)OC(OC7C(CSCCCCCCCN)OC(OC8C(CSCCCCCCCN)OC(OC1C(O)C2O)C(O)C8O)C(O)C7O)C(O)C6O)C(O)C5O)C(O)C4O)C(O)C3O (stereo not drawn)
RESULT: >200 µg/mL
